Molecular target: UniProtKB P35368
Sequence (P35368 whole entry): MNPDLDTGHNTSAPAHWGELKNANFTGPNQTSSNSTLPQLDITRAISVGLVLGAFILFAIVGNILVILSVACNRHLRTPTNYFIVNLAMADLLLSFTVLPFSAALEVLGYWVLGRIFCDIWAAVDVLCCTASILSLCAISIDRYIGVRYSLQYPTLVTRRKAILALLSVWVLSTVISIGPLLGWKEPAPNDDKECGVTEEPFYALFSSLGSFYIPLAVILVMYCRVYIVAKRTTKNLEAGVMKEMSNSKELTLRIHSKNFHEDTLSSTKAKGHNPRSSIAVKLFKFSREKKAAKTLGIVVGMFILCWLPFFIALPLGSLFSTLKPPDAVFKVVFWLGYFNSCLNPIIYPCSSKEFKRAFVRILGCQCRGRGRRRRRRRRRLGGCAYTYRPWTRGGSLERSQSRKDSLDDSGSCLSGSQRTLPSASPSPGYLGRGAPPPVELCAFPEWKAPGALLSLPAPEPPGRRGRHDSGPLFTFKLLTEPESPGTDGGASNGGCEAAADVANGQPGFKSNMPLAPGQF
Test: Radioligand binding, adrenergic α1B (Protocol Group B)
Set-up: purchased Milipore (Millipore)
Conditions: 0.1 μM compound; Protocol Group B; 0.1 µM
Provide the recorded Percentage inhibition of ligand binding, Adrenergic α1B (0.1 μM) for the entries that follow.

Q: Query: Percentage inhibition of ligand binding, Adrenergic α1B (0.1 μM); subject: OC(Cn1c2c(c3cc(Cl)cc(F)c31)C1CCCN1CC2)c1ccncc1 (single isomer, unassigned) [135d]
Ans: −7%

Q: Okay, and Cc1ccc2c(c1)c1c(n2CC(C)(O)c2ccc(F)cc2)CC2CCC1N2C (single isomer, unassigned) [102d] ?
Ans: −1%

Q: Okay, and Cc1cc(Cl)c2c(c1)c1c(n2CC(O)c2ccncc2)CCN2CCCC12 (single isomer, unassigned) [142a] ?
Ans: 46%

Q: Okay, and Cc1cc(F)cc2c3c(n(CC(C)(O)c4ccncc4)c12)CC1CCCN1C3 (single isomer, unassigned) [78c] ?
Ans: −11%

Q: Okay, and Cc1cc(F)c2c(c1)c1c(n2CC(C)(O)c2cccnc2)CCN2CCCC12 (single isomer, unassigned) [79d] ?
Ans: −4%

Q: Okay, and Cc1ccc2c(c1)c1c(n2CC(O)c2ccccn2)CC2CCCN2C1 (single isomer, unassigned) [45b] ?
Ans: 18%

Q: Okay, and CC(O)(Cn1c2c(c3cc(Cl)cc(F)c31)C1CCCN1CC2)c1cccnc1 (single isomer, unassigned) [53a] ?
Ans: 12%

Q: Okay, and OC(Cn1c2c(c3cc(F)cc(F)c31)C1CCCN1CC2)c1ccncc1 (single isomer, unassigned) [144d] ?
Ans: 1%

Q: Okay, and Cc1ccc2c(c1)c1c(n2CC(C)(O)c2cccnc2)CC2CCCN2C1 (stereo not shown) [41d] ?
Ans: −2%

Q: Okay, and OC(Cn1c2c(c3cc(Cl)ccc31)C1CCCN1CC2)c1ccncc1 (single isomer, unassigned) [143b] ?
Ans: 94%

Q: Okay, and Cc1ccc2c(c1)c1c(n2CC(C)(O)c2ccncc2)CC2CCCN2C1 (single isomer, unassigned) [37d] ?
Ans: 5%

Q: Okay, and Cc1cc(C)c2c(c1)c1c(n2CC(C)(O)c2ccncc2)CCN2CCCC12 (single isomer, unassigned) [19b] ?
Ans: 60%

Q: Okay, and CC(O)(Cn1c2c(c3cc(Cl)cc(F)c31)C1CCCN1CC2)c1ccncc1 (single isomer, unassigned) [52c] ?
Ans: −6%

Q: Okay, and CC(O)(Cn1c2c(c3cc(Cl)cc(F)c31)C1CCCN1CC2)c1ccncc1 (single isomer, unassigned) [52a] ?
Ans: 75%

Q: Okay, and Cc1ccc2c(c1)c1c(n2CC(C)(O)c2ccc(F)cc2)CN2CCC1C2 (single isomer, unassigned) [134a] ?
Ans: −6%

Q: Okay, and OC(Cn1c2c(c3cc(F)ccc31)C1CCCN1CC2)c1ccncc1 (single isomer, unassigned) [18a] ?
Ans: 20%

###

Provide the recorded Percentage inhibition of ligand binding, Adrenergic α2A (0.3 μM) for the entries that follow.
Target: Human adrenergic α2A receptor (Homo sapiens, UniProt P08913)
Sequence (P08913 whole entry): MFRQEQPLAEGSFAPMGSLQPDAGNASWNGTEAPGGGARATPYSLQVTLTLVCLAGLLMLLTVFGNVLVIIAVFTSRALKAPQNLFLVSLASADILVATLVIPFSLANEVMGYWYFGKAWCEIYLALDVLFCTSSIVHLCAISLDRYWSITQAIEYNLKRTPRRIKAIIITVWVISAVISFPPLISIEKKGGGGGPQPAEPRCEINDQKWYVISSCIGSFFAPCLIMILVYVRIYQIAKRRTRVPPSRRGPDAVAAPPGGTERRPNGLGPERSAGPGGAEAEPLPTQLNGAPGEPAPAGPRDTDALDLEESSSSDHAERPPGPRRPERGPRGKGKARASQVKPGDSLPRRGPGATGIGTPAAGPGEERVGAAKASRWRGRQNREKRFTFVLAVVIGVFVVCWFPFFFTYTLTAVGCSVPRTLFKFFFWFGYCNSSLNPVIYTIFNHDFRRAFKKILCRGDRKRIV
Test: Radioligand binding, adrenergic α2A (Protocol Group B)
Set-up: purchased Milipore (Millipore)
Settings: 0.3 μM compound; Protocol Group B; 0.3 µM
Supply the numeric figure in %, leaving out any unit text.

Q: Query: Percentage inhibition of ligand binding, Adrenergic α2A (0.3 μM); subject: Cc1cc(F)c2c(c1)c1c(n2CC(O)c2ccncc2)CCN2CCCC12 (single isomer, unassigned) [137a]
Ans: 79

Q: Okay, and CC(O)(Cn1c2c(c3cc(F)ccc31)C1CCCN1CC2)c1cccnc1 (centres unmarked) [57a] ?
Ans: −11

Q: Okay, and Cc1cc(F)c2c(c1)c1c(n2CC(O)c2ccncc2)CCN2CCCC12 (single isomer, unassigned) [137d] ?
Ans: 16

Q: Okay, and Cc1cc(F)c2c(c1)c1c(n2CC(C)(O)c2cccnc2)CC2CCCN2C1 (single isomer, unassigned) [61b] ?
Ans: 22

Q: Okay, and Cc1ccc2c(c1)c1c(n2CC(C)(O)c2ccncc2)CC2CCCN2C1 (single isomer, unassigned) [37c] ?
Ans: 14

Q: Okay, and CC(O)(Cn1c2c(c3cc(F)ccc31)C1CCCN1CC2)c1ccncc1 (single isomer, unassigned) [31c] ?
Ans: −21

Q: Okay, and Cc1ccc2c(c1)c1c(n2CC(C)(O)c2cccnc2)CC2CCCN2C1 (centres unmarked) [41c] ?
Ans: 1

Q: Okay, and Cc1cc(Cl)c2c(c1)c1c(n2CC(C)(O)c2ccncc2)CCN2CCCC12 (single isomer, unassigned) [91c] ?
Ans: −3

###

Provide the recorded Percentage inhibition of ligand binding, Adrenergic α2B (0.1 μM) for the entries that follow.
Target: UniProtKB P18089
Sequence (P18089 1-450): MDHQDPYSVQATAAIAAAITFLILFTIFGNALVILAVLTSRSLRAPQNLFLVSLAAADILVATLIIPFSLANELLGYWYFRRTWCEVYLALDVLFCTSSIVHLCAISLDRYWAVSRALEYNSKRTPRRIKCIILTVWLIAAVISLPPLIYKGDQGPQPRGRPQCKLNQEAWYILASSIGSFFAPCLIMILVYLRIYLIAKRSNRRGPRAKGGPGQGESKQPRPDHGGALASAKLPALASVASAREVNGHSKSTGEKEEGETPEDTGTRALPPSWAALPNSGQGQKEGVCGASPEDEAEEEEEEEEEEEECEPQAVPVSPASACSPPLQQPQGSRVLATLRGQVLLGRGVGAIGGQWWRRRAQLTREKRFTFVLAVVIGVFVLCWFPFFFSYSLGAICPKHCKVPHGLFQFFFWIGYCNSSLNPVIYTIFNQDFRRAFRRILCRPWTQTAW
Test: Radioligand binding, adrenergic α2B (Protocol Group B)
Design: purchased Milipore (Millipore)
Conditions: 0.1 μM compound; Protocol Group B; 0.1 µM
Supply the numeric figure in %, leaving out any unit text.

Q: Query: Percentage inhibition of ligand binding, Adrenergic α2B (0.1 μM); subject: Cc1cc(C)c2c(c1)c1c(n2CC(C)(O)c2ccncc2)CCN2CCCC12 (single isomer, unassigned) [19c]
Ans: 6

Q: Okay, and Cc1cc(F)c2c(c1)c1c(n2CC(C)(O)c2cccnc2)CC2CCCN2C1 (single isomer, unassigned) [61d] ?
Ans: 23

Q: Okay, and Cc1cc(F)c2c(c1)c1c(n2CC(C)(O)c2ccncc2)CCN2CCCC12 (single isomer, unassigned) [81b] ?
Ans: 100

Q: Okay, and Cc1ccc2c(c1)c1c(n2CC(C)(O)c2cccnc2)CC2CCCN2C1 (single isomer, unassigned) [38c] ?
Ans: 92

Q: Okay, and CC(O)(Cn1c2c(c3cc(F)ccc31)C1CCCN1CC2)c1ccncc1 (single isomer, unassigned) [31c] ?
Ans: 45

Q: Okay, and Cc1ccc2c(c1)c1c(n2CC(O)c2cccnc2)CC2CCCN2C1 (single isomer, unassigned) [27b] ?
Ans: 67

###

Target: Human adrenergic α2A receptor (Homo sapiens, UniProt P08913)
Assay: Radioligand binding, adrenergic α2A (Protocol Group B)
Design: purchased Milipore (Millipore)
Settings: 0.1 μM compound; Protocol Group B; 0.1 µM
Experimental: To evaluate the activity of compounds in radioligand binding assays, Human adrenergic α2A receptor obtained from recombinant cell membrane from Milipore. Binding experiments were carried out in Tris-HCl buffer (50 mM Tris-HCl buffer, pH 7.4, 5 mM Mgcl2, 1 mM Cacl2, 0.2% BSA) as recommended by Milipore. […] Receptor proteins were harvested on 0.33% PEI(poly-ethylenemine) soaked GFC filter mat, the specifically bound [^3H]MK-912 were counted to determine total binding. […]
Binary classification by Percentage inhibition of ligand binding, Adrenergic α2A (0.1 μM), with 40% as an inclusive lower bound for 1 (yes); all other cases are 0 (no).

Q: Check if Percentage inhibition of ligand binding, Adrenergic α2A (0.1 μM) >= 40% (inclusive). Item: Cc1cc(Br)c2c(c1)c1c(n2CC(O)c2ccncc2)CCN2CCCC12 (single isomer, unassigned) [145b]
Ans: 1 (yes)

Q: Okay, and CC(O)(Cn1c2c(c3cc(Cl)cc(F)c31)C1CCCN1CC2)c1cccnc1 (single isomer, unassigned) [53a] ?
Ans: 1 (yes)

Q: Okay, and Cc1ccc2c(c1)c1c(n2CC(OC(N)=O)c2ccncc2)CCN(C)C1 (single isomer, unassigned) [8a] ?
Ans: 0 (no)

Q: Okay, and Cc1cc(C)c2c(c1)c1c(n2CC(C)(O)c2cccnc2)CCN2CCCC12 (single isomer, unassigned) [44c] ?
Ans: 0 (no)

Q: Okay, and Cc1ccc2c(c1)c1c(n2CC(O)c2ccncc2)CN(C)C2CCCC12 (single isomer, unassigned) [36a] ?
Ans: 0 (no)

Q: Okay, and CC(O)(Cn1c2c(c3cc(F)cc(Cl)c31)C1CCCN1CC2)c1cccnc1 (single isomer, unassigned) [89d] ?
Ans: 1 (yes)
